B1: Twister Ribozyme (parent)
chain: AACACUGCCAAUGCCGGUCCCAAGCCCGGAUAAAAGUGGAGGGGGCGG

# Variants of: B1
# experiment: self-cleavage, relative activity (ratio to wild type); higher = more cleavage; co-transcriptional
Some variants, each annotated with its measured self-cleavage.
Would you mind answering with just the numeric figure?

Request: Report self-cleavage, nothing else, for this variant: G29C A40G
Response: 0.157

Request: Indicate the recorded self-cleavage value for this variant: A34G G38C
Response: 0.632

Request: Supply self-cleavage value. Item: C15G U18A
Response: 0.04

Request: For A30U G43A , write its self-cleavage.
Response: 0.278

Request: Specify self-cleavage for G17U A32C and stop.
Response: 0.263

Request: Look up and state reported self-cleavage for G17U
Response: 0.497

Request: Read off the recorded self-cleavage for G42A G43A
Response: 0.131

Request: Read the entry A22C C26U and write its reported self-cleavage.
Response: 0.631

Just for reference, the RNAGym collection of RNA variant scans (doi:10.7554/elife.80360) is where these values come from.
